Numbers sourced from patent US11225474B2.

- procedure-text: Solubility of the free base in various solvents
- Format: physicochemical
- assay-context: organic solvent or mixture, thermodynamic from solid; Tetrahydrofuran; 3.6 mg in 0.1 mL; 50 °C
measured-parameter: solubility

Record summary for Cc1ccc(C(=O)Nc2ccc(CN3CCN(C)CC3)c(C(F)(F)F)c2)cc1C#Cc1nnc2ccccn12 [free base] : reported solubility = > 800 µg/mL

###

- procedure-text: physchem
- Assay type: physicochemical
- assay-context: deionized water, RT; read-out: Apparent solubility
measured-parameter: solubility

Record summary for CS(=O)(=O)O.Cc1ccc(C(=O)Nc2ccc(CN3CCN(C)CC3)c(C(F)(F)F)c2)cc1C#Cc1nnc2ccccn12 [methanesulfonic acid salt] : reported solubility = > 46 mg/mL
